biological target: T1, M1-2; test: scFv-phage ELISA
T1 construct: also called PD1 mutant M1-2
Tick criterion met if OD490 is 3 or greater. Tick criterion not met if OD490 is less than 3.

Prompt line: Decide: is the reported value of OD490 for PD1-44B5 (antibody, V domains shown, scFv-phage in the screening ELISA; later whole IgG) VH: QVQLVESGGGVVQPGRSLRLSCAASGFTFSSYAMHWVRQAPGKGLEWVAVISYDGSNKYYADSVKGRFTISRDNSKNTLYLQMNSLRAEDTAVYYCARLMHTFSVQYFLDVWGQGTTVTVSS VL: QFVLTQSPSASGTPGQNIVISCSASTFNIGTTTVNWYQRLPGTAPKLLIYNYDQRPSGVPDRFSGSKSGTSASLAISGLQSEDEADYYCAAWDDSLNAWLFGGGTKLTVL equal to or greater than 3?
Response line: criterion not met

Prompt line: Decide: is the reported value of OD490 for PD1-49A2 (antibody, V domains shown, scFv-phage in the screening ELISA; whole IgG in the other assays; also called Parent 49A2) VH: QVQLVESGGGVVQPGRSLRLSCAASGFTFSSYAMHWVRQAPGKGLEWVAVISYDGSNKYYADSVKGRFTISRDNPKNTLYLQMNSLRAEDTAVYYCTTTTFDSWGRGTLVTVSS VL: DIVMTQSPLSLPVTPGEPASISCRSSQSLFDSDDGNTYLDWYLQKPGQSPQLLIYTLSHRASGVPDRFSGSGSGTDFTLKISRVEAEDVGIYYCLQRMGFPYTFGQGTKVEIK equal to or greater than 3?
Response line: criterion met

Prompt line: Decide: is the reported value of OD490 for PD1-49B9 (antibody, V domains shown, scFv-phage in the screening ELISA; later whole IgG) VH: QMQLVESGGGLVQPGRSLRLSCAASGFTFEDYAMHWVRQPPGKGLEWVSSISWNSHNIAYADSVKGRFTISRDNSKNSLYLQMNSLRAEDTAVYYCSTSGLGVHAWGQGTMVTVSS VL: QSALTQPPSASGSPGQSVTISCTGTSSDVGGYNYVSWYQQHPGKAPKLMIYEVSKRPSGVPDRFSGSKSGNTASLTVSGLQPEDEADYYCSSFARNSNYVFGTGTKVTVL equal to or greater than 3?
Response line: criterion met

Prompt line: Decide: is the reported value of OD490 for PD1-32A6 (antibody, V domains shown, scFv-phage in the screening ELISA; later whole IgG) VH: QVQLVQSGAEVKKPGSSVKVSCKASGDTFTRNAVSWVRQAPGEGLEWMADIIPIFGSANYAQKFQGRLTLTADVSTSTAYMELSSLRSEDTAVYYCARTIEGAFDIWGQGTMVTVSS VL: DIQMTQSPSSVSASVGDRVTITCRASQGIVSWLAWYQQKPGKAPRLLIYRASDLETGVPSRFSGSGSGTDFTLTISSLQPEDVATYYCQQADSFPLTFGGGTKVEIK equal to or greater than 3?
Response line: criterion not met

Prompt line: Decide: is the reported value of OD490 for PD1-31F3 (antibody, V domains shown, scFv-phage in the screening ELISA; later whole IgG) VH: QVQLVQSGAEVKKPGSSVKVSCKASGGTFSSYAISWVRQAPGQGLEWMGGIIPLFSTAHSAQKFQGRVTITADESSSTAYMELSSLRSEDTAVYYCAKHKGLPFDWSPDGFDTWGQGTMVTVSS VL: QFVLTQPPSVSGAPGQRVIISCTGSSSNIGAGYDVHWYQQLPGTAPKVLIYGNSDRPSGVPDRFSASKSATSASLAITGLQAEDEADYYCQSYDSSLSGYVFGTGTKVTVL equal to or greater than 3?
Response line: criterion met

Prompt line: Decide: is the reported value of OD490 for PD1-45F1 (antibody, V domains shown, scFv-phage in the screening ELISA; later whole IgG) VH: QVQLVQSGAEVKKPGASVKLSCKASGYTFNSYYVHWVRQAPGQGLEWMGIINPSDGSATYAQKFQGRVTMTSDTSTSSVYMELSSLRSEDTAVYYCARDGNYYDSRGYYYDTFDMWGQGTLITVSS VL: SYELTQDPAVSVALGQTVRITCQGDSLRTYYASWYQQKPGQAPILVIYGKNNRPSGIPDRFSGSSSGNTASLTITAAQAEDEADYYCNSRDSSGKSLVFGGGTKLTVL equal to or greater than 3?
Response line: criterion met

Prompt line: Decide: is the reported value of OD490 for PD1-41C9 (antibody, V domains shown, scFv-phage in the screening ELISA; whole IgG in the other assays) VH: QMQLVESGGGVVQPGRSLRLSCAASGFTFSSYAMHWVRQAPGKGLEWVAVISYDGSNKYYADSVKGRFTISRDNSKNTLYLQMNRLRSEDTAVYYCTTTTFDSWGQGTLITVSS VL: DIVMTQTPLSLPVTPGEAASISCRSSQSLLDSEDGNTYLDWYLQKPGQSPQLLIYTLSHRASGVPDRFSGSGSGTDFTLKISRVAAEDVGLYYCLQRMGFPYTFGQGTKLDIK equal to or greater than 3?
Response line: criterion met

Prompt line: Decide: is the reported value of OD490 for PD1-42G4 (antibody, V domains shown, scFv-phage in the screening ELISA; later whole IgG) VH: QVQLVESGGGLVKPGGSLRLSCAASGFTFSDYYMSWIRQAPGKGLEWVSDISASGNSIYYADSVKRRFTISRDNSKNSLYLQMNSLRAEDTAVYYCVTSGPFGEFRNWGLGTLVTVSS VL: DIQMTQSPSSLSASVGDRVTTTCRASQGISSYLAWYQQKPGKAPKLLIYAASTLQSGVPSRFSGSGSGTDFTLTISSLQPEDFATYFCQQSYTSPRTFGQGTKLDIK equal to or greater than 3?
Response line: criterion not met

Prompt line: Decide: is the reported value of OD490 for PD1-45F4 (antibody, V domains shown, scFv-phage in the screening ELISA; later whole IgG) VH: QMQLVESGGGLVQPGRSLRLSCAASGFTFDDYAMHWVRQAPGQGLEWVSGISWNSNNIKYADSVKGRFTISRDNSKNSLYLQMNSLRAEDTAVYYCARGALTPLDVWGQGTPVTVSS VL: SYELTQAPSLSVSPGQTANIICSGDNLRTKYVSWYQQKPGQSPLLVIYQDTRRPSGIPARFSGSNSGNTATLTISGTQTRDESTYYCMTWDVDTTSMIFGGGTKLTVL equal to or greater than 3?
Response line: criterion met

Prompt line: Decide: is the reported value of OD490 for PD1-48A9 (antibody, V domains shown, scFv-phage in the screening ELISA; whole IgG in the other assays) VH: QMQLVQSGAEVKKPGSSVKVSCKASGDTFTRYIINWVRQAPGQGLEWMGRVIPTLGLTTYAQNFQDTVTIIADKSTNTAYMELKNLRSEDTAVYYCARGYGSGAFDIWGQGTMITVSS VL: DIVMTQTPLSLPVTPGEPASISCRSSQSLLDSHDGNTYLDWYLQKPGQSPQLLIYTLSHRASGVPDRFSGSGSGTDFTLKISRVEAEDVGLYYCMQRIDFPYTFGQGTKVEIK equal to or greater than 3?
Response line: criterion met

Prompt line: Decide: is the reported value of OD490 for PD1-29H3 (antibody, V domains shown, scFv-phage in the screening ELISA; later whole IgG) VH: QMQLVESGGNLVQPGRSLRLSCAASGFTFDDYGMHWVRQAPGKGLEWVSSISWNSGTIGYADSVKGRFTISRDNAKNSLYLQMNSLRSEDTAVYYCARLLHQMNEHEFMDVWGQGTTVTVSS VL: QLVLTQPSSMSEAPGQRVTISCSGGTSNIGTNAVNWYQQPPGKAPTLLIYYDDRLTSGVSDRFSGSKSGTSASLAISRLQSEDEADYYCAAWDDSLNGWVFGGGTKLTVL equal to or greater than 3?
Response line: criterion not met
